Sourced from ChEMBL document CHEMBL4138257

Assay: Kinetic solubility of the compound in FeSSIF at pH 5 after 24 hrs by HPLC analysis
Format: physicochemical
Conditions: read-out: Kinetic_solubility
QUANTITY KIND: solubility kinetic at 24 h (µg/mL)
State the answer as a number, implicitly in µg/mL.

Ask: solubility kinetic at 24 h for O[C@H]1CNCCC[C@@H]1n1c2ccc(C(F)(F)F)cc2c2cc(C(F)(F)F)ccc21 ?
Reply: 83.5

====

Assay: Intrinsic clearance in mouse microsomes assessed per mg protein
Assay type: ADME, Microsome
QUANTITY KIND: microsomal CLint

Ask: microsomal CLint for O[C@H]1CNCCC[C@@H]1n1c2ccc(C(F)(F)F)cc2c2cc(C(F)(F)F)ccc21 ?
Reply: < 10 µL/min/mg

====

Assay: Lipophilicity, log P of the compound
Type: physicochemical
Details: octanol/water
QUANTITY KIND: logP

Ask: logP for O[C@H]1CNCCC[C@@H]1n1c2ccc(C(F)(F)F)cc2c2cc(C(F)(F)F)ccc21 ?
Reply: 4.6

====

Assay: Ratio of drug uptake in human blood to plasma
Format: ADME
Details: blood and plasma
QUANTITY KIND: blood plasma ratio
Please reply with the value in numeric form only.

Ask: blood plasma ratio for O[C@H]1CNCCC[C@@H]1n1c2ccc(C(F)(F)F)cc2c2cc(C(F)(F)F)ccc21 ?
Reply: 1.5

====

Assay: Efflux ratio of apparent permeability from basolateral to apical side over apical to basolateral side in human Caco2 cells at 20 uM after 4 hrs in presence of human plasma by LC-MS analysis
Assay type: ADME, cell-based
Conditions: Caco-2
QUANTITY KIND: efflux ratio at 4 h, 20 µM
Please reply with the value in numeric form only.

Ask: efflux ratio at 4 h, 20 µM for O[C@H]1CNCCC[C@@H]1n1c2ccc(C(F)(F)F)cc2c2cc(C(F)(F)F)ccc21 ?
Reply: 0.8

====

Assay: Kinetic solubility of the compound in FaSSIF at pH 6.5 after 24 hrs by HPLC analysis
Type: physicochemical
Details: read-out: Kinetic_solubility
QUANTITY KIND: solubility kinetic at 24 h (µg/mL)
State the answer as a number, implicitly in µg/mL.

Ask: solubility kinetic at 24 h for O[C@H]1CNCCC[C@@H]1n1c2ccc(C(F)(F)F)cc2c2cc(C(F)(F)F)ccc21 ?
Reply: 10

====

Assay: Fraction unbound in human plasma at 1000 ng/mL by LC-MS analysis
Format: ADME, cell-free
QUANTITY KIND: fraction unbound at 1000 ng/mL
Please reply with the value in numeric form only.

Ask: fraction unbound at 1000 ng/mL for O[C@H]1CNCCC[C@@H]1n1c2ccc(C(F)(F)F)cc2c2cc(C(F)(F)F)ccc21 ?
Reply: 0.035

====

Experiment: Half life in CD1 mouse at 0.5 mg/kg, po measured for 14 days
Format: ADME, organism-based
Conditions: in vivo
QUANTITY KIND: half-life (h)
State the answer as a number, implicitly in h.

Ask: half-life for O[C@H]1CNCCC[C@@H]1n1c2ccc(C(F)(F)F)cc2c2cc(C(F)(F)F)ccc21 ?
Reply: 86

====

Assay: Cmax in NOD-SCID IL-2Rgamma null mouse at 10 mg/kg measured up to 5 days
Format: ADME, organism-based
Set-up: dose 10 mg/kg
Settings: in vivo
QUANTITY KIND: Cmax (nM)
State the answer as a number, implicitly in nM.

Ask: Cmax for O[C@H]1CNCCC[C@@H]1n1c2ccc(C(F)(F)F)cc2c2cc(C(F)(F)F)ccc21 ?
Reply: 1000

====

Test: Protein binding in brain (unknown origin)
Format: ADME, tissue-based
Conditions: read-out: PB
QUANTITY KIND: fraction unbound

Ask: fraction unbound for O[C@H]1CNCCC[C@@H]1n1c2ccc(C(F)(F)F)cc2c2cc(C(F)(F)F)ccc21 ?
Reply: < 0.001
